- Experiment summary: Ability for reversible inhibition of Walker 256 5-Fluoro-2'-deoxyuridine Phosphorylase
- Set-up: species or system Rattus norvegicus
- Condition summary: read-out: I 50
pIC50: −log10 of the molar value.
Entries and their pIC50 values follow.
Metric name: pIC50

{"Chemical string": "CCOc1cccc(Cc2cn(Cc3ccc(NC(=O)c4cccc(S(=O)(=O)F)c4)cc3)c(=O)[nH]c2=O)c1", "Test result": 4.48}
{"Chemical string": "CCOc1cccc(Cc2cnc(O)nc2O)c1", "Test result": 5.85}
{"Chemical string": "CCOc1cccc(Cc2cn(Cc3cccc(NC(=O)c4cccc(S(=O)(=O)F)c4)c3)c(=O)[nH]c2=O)c1", "Test result": 5.49}
{"Chemical string": "CCOc1cccc(Cc2cn(Cc3cccc(NC(=O)Nc4cccc(S(=O)(=O)F)c4)c3)c(=O)[nH]c2=O)c1", "Test result": 5.96}
{"Chemical string": "CCOc1cccc(Cc2cn(Cc3cccc(NC(=O)c4ccc(S(=O)(=O)F)cc4)c3)c(=O)[nH]c2=O)c1", "Test result": 5.60}
{"Chemical string": "CCOc1cccc(Cc2cn(Cc3ccccc3)c(=O)[nH]c2=O)c1", "Test result": 5.92}
{"Chemical string": "CCOc1cccc(Cc2cn(Cc3cccc(NC(=O)Nc4ccc(S(=O)(=O)F)cc4)c3)c(=O)[nH]c2=O)c1", "Test result": 5.72}
{"Chemical string": "CCOc1cccc(Cc2cn(Cc3ccc(NC(=O)c4ccc(S(=O)(=O)F)cc4)cc3)c(=O)[nH]c2=O)c1", "Test result": 4.82}

---

# maps each entry to its Ratio
- Species on record: Rattus norvegicus
- Experiment summary: Irreversible inhibition of Walker 256 FUDR phosphorylase; expressed as Vo/Vi, velocity without inhibitor to that of velocity with inhibitor
Metric name: Ratio

{"Chemical string": "CCOc1cccc(Cc2cn(Cc3ccc(NC(=O)c4ccc(S(=O)(=O)F)cc4)cc3)c(=O)[nH]c2=O)c1", "Test result": 1}
{"Chemical string": "CCOc1cccc(Cc2cn(Cc3cccc(NC(=O)Nc4ccc(S(=O)(=O)F)cc4)c3)c(=O)[nH]c2=O)c1", "Test result": 1.1}
{"Chemical string": "CCOc1cccc(Cc2cn(Cc3ccc(NC(=O)c4cccc(S(=O)(=O)F)c4)cc3)c(=O)[nH]c2=O)c1", "Test result": 1}
{"Chemical string": "CCOc1cccc(Cc2cn(Cc3cccc(NC(=O)c4cccc(S(=O)(=O)F)c4)c3)c(=O)[nH]c2=O)c1", "Test result": 1.1}

---

- Organism: Rattus norvegicus
- Experiment summary: Irreversible inhibition of Walker 256 FUDR phosphorylase; expressed as Vo/Vi, velocity without inhibitor to that of velocity with inhibitor
Metric name: Ratio

{"Chemical string": "CCOc1cccc(Cc2cn(Cc3cccc(NC(=O)Nc4cccc(S(=O)(=O)F)c4)c3)c(=O)[nH]c2=O)c1", "Test result": 1.2}
{"Chemical string": "CCOc1cccc(Cc2cn(Cc3cccc(NC(=O)c4ccccc4)c3)c(=O)[nH]c2=O)c1", "Test result": 1.2}
{"Chemical string": "CCOc1cccc(Cc2cn(Cc3cccc(NC(=O)c4ccc(S(=O)(=O)F)cc4)c3)c(=O)[nH]c2=O)c1", "Test result": 1}

---

- Experiment summary: Ability for reversible inhibition of Walker 256 5-Fluoro-2'-deoxyuridine Phosphorylase
- Parameters: species or system Rattus norvegicus
- Condition summary: read-out: I50
Metric name: IC50

{"Chemical string": "COc1cccc(Cc2cnc(O)nc2O)c1", "Metric name": "IC50", "Test result": "1.9 µM"}
{"Chemical string": "O=c1[nH]c(=O)n(Cc2ccccc2)cc1Cc1cccc(OCc2ccccc2)c1", "Metric name": "IC50", "Test result": "2.5 µM"}
{"Chemical string": "Oc1ncc(Cc2ccccc2)c(O)n1", "Metric name": "IC50", "Test result": "5.3 µM"}
{"Chemical string": "O=c1[nH]c(=O)n(Cc2ccccc2)cc1Cc1ccccc1", "Metric name": "IC50", "Test result": "2.6 µM"}
{"Chemical string": "Cn1cc(Cc2ccccc2)c(=O)[nH]c1=O", "Metric name": "IC50", "Test result": "6.2 µM"}
{"Chemical string": "O=c1[nH]c(=O)n(CCCOc2ccccc2)cc1Cc1ccccc1", "Metric name": "IC50", "Test result": "5.7 µM"}
{"Chemical string": "Oc1ncc(Cc2cccc(OCc3ccccc3)c2)c(O)n1", "Metric name": "IC50", "Test result": "0.5 µM"}
{"Chemical string": "CCOc1cccc(Cc2cn(Cc3cccc(NC(=O)c4ccccc4)c3)c(=O)[nH]c2=O)c1", "Metric name": "IC50", "Test result": "1.2 µM"}
{"Chemical string": "CCOc1cccc(Cc2cn(Cc3ccc(NC(=O)c4ccccc4)cc3)c(=O)[nH]c2=O)c1", "Metric name": "IC50", "Test result": "3.8 µM"}

Where do these numbers come from? They come from ChEMBL document CHEMBL1122161.
